Test system: MDA-MB-453
assay.info: cells
conditions.used: Homo sapiens, MDA-MB-453, 72 h
reported.endpoint: pIC50
Entry type: numeric. Quantity: pIC50, the -log10 of concentration in molar units.

Use the examples below as a reference point.
For `COc1ccc(-c2cc(COCc3ccc(C(C)C)cc3)c3cccnc3c2O)cc1` on MDA-MB-453, measured pIC50 was 6.10

// returns pIC50 for `CC(C)c1ccc(COCc2cc(Br)c(O)c3ncccc23)cc1` with MDA-MB-453; value = 5.89

Entry `CCN(CC)Cc1cc(Cn2ncc(-c3ccc(C(F)(F)F)cc3)n2)c2cccnc2c1O` , tested on MDA-MB-453, has a reported pIC50 of 5.21

Simply: `Oc1c(CN2CCCC2)cc(Cn2ncc(-c3ccc(C(F)(F)F)cc3)n2)c2cccnc12` , MDA-MB-453, pIC50 = 5.46

Let us move to another entry and its pIC50.
pIC50 on MDA-MB-453 for `Oc1c(CN2CCCC2)cc(Cn2ncc(-c3cccc(Br)c3)n2)c2cccnc12` is 5.55

###

Recorded Ratio IC50 for the following molecules
assay.info: Resistance index, ratio of IC50 for antiproliferation activity against human MDA-MB-435/LCC6MDR cells to IC50 for antiproliferation activity against human MDA-MB-435 cells assessed as cell growth inhibition measured after 72 hrs by MTS assay
Assay type: functional
Respond numerically, and do not add a unit to the figure.

The recorded Ratio IC50 for entry `Oc1c(CN2CCCC2)cc(Cn2ncc(-c3ccc(Br)cc3)n2)c2cccnc12` equals 0.2

Entry under test: `Oc1c(CN2CCCC2)cc(Cn2ncc(-c3ccccc3Br)n2)c2cccnc12` . Its Ratio IC50 was 0.2

// Ratio IC50 value for `CCN(CC)Cc1cc(Cn2ncc(-c3ccc(C(F)(F)F)cc3)n2)c2cccnc2c1O` : 0.5

Documented Ratio IC50 of `CC(C)c1ccc(-c2cnn(Cc3cc(CN4CCCC4)c(O)c4ncccc34)n2)cc1` : 0.4

Value of measured Ratio IC50 for the entry `CC(C)c1ccc(COCc2cc(-c3ccnc4ccccc34)c(O)c3ncccc23)cc1` : 0.8

Further cases:
The reported Ratio IC50 of the molecule `O=[N+]([O-])c1ccc(-c2cnn(Cc3cc(CN4CCCC4)c(O)c4ncccc34)n2)cc1` was 0.3

The molecule listed as `Cc1ccc(-c2cc(COCc3ccc(C(C)C)cc3)c3cccnc3c2O)cc1` has a reported Ratio IC50 of 1.3

###

assay.info: Metabolic stability of the compound in human liver microsomes assessed as half life at 10 uM incubated for 10 mins in presence of NADPH by UPLC-MS analysis
Type: ADME, Microsome
Recorded t1/2 by entry
// note: answer is a bare numeric in h

The molecule identified as `Oc1c(CN2CCCCC2)cc(Cn2ncc(-c3ccc(Br)cc3)n2)c2cccnc12` registered its t1/2 at 1.3

Form field t1/2, entry `Oc1c(CN2CCCC2)cc(Cn2ncc(-c3ccc(Br)cc3)n2)c2cccnc12` : 1.9

molecule `CC(C)c1ccc(COCc2cc(-c3cncc4ccccc34)c(O)c3ncccc23)cc1` , t1/2 observed: 1.4

t1/2 reported for this molecule `Oc1c(CN2CCCC2)cc(Cn2ncc(-c3cccc(Br)c3)n2)c2cccnc12` : 2.3

---
Reported t1/2 of `Oc1c(CN2CCCCC2)cc(Cn2ncc(-c3ccc(C(F)(F)F)cc3)n2)c2cccnc12` : 1.5

###

System: MDA-MB-435
assay.info: cells
conditions.used: Homo sapiens, MDA-MB-435, 72 h
reported.endpoint: IC50 (µM)
Return type: number; implicit unit µM.

Entry `CC(C)c1ccc(COCc2cc(-c3ccc(C(F)(F)F)cc3)c(O)c3ncccc23)cc1` , IC50 reported as 1.9

For this compound ( Oc1c(CN2CCCC2)cc(COC2CCc3ccccc3C2)c2cccnc12 (stereo not given) ), measured IC50 is 3.3

Per the records, this compound ( `CC(C)c1ccc(-c2cnn(Cc3cc(CN4CCCC4)c(O)c4ncccc34)n2)cc1` ) has IC50 equal to 4.6

Field IC50 (entry `Oc1c(CN2CCCC2)cc(Cn2ncc(-c3ccccc3Br)n2)c2cccnc12` ) reads 2.4

Recorded IC50 (compound `O=[N+]([O-])c1ccc(-c2cnn(Cc3cc(CN4CCCC4)c(O)c4ncccc34)n2)cc1` ): 4.1

###

assay.info: Metabolic stability of the compound in mouse liver microsomes assessed as half life at 10 uM incubated for 10 mins in presence of NADPH by UPLC-MS analysis
Type: ADME, Microsome
reported.endpoint: t1/2 (min)
Please state the figure in min; there is no need to write the unit.

Please review the following examples before continuing.
The recorded t1/2 for `CC(C)c1ccc(COCc2cc(-c3cncc4ccccc34)c(O)c3ncccc23)cc1` is 72

Looking up `Oc1c(CN2CCCCC2)cc(Cn2ncc(-c3ccc(Br)cc3)n2)c2cccnc12` , I see its t1/2 listed as 42

Lab book: t1/2 of `Oc1c(CN2CCCC2)cc(Cn2ncc(-c3ccc(Br)cc3)n2)c2cccnc12` noted as 48

Note: attention shifts to another entry.
t1/2 for `Oc1c(CN2CCCC2)cc(Cn2ncc(-c3cccc(Br)c3)n2)c2cccnc12` is 60

###

System: MDA-MB-453
assay.info: cells
conditions.used: Homo sapiens, MDA-MB-453, 72 h
List of pIC50 values.
Note: pIC50 values are expressed as the negative base-10 logarithm of concentration in M.

Summary line: `CC(C)c1ccc(COCc2cc(CN3CCCC3)c(O)c3ncccc23)cc1` , MDA-MB-453, reported pIC50 = 5.80

Measured on MDA-MB-453, `Oc1c(CN2CCCC2)cc(COC2Cc3ccccc3C2)c2cccnc12` has a documented pIC50 of 5.62

The compound `COc1ccc(-c2cnn(Cc3cc(CN4CCCC4)c(O)c4ncccc34)n2)cc1` on MDA-MB-453: pIC50 was 5.66

The measured pIC50 that `Oc1c(CN2CCOCC2)cc(Cn2ncc(-c3ccc(Br)cc3)n2)c2cccnc12` showed for MDA-MB-453 is 5.62

Value (pIC50, MDA-MB-453) for record `Cc1ccc(-c2cnn(Cc3cc(CN4CCCC4)c(O)c4ncccc34)n2)cc1` = 5.54

// next entry
pIC50 of `Oc1c(CN2CCCC2)cc(Cn2ncc(-c3ccc(Br)cc3)n2)c2cccnc12` , assay on MDA-MB-453, is 5.51

###

Test system: MDA-MB-453
assay.info: cells
conditions.used: Homo sapiens, MDA-MB-453, 72 h
The compounds listed here are annotated with their pIC50.
Convention used: pIC50 is expressed as -log10 of the molar concentration.

// below: answered compounds
Measured pIC50 (MDA-MB-453), entry `CC(C)c1ccc(COCc2cc(-c3cncc4ccccc34)c(O)c3ncccc23)cc1` : 5.89

Readout pIC50 for `Oc1c(CN2CCCCC2)cc(Cn2ncc(-c3ccc(Br)cc3)n2)c2cccnc12` , test system MDA-MB-453, was 5.82

Log: MDA-MB-453, compound `CC(C)c1ccc(-c2cnn(Cc3cc(CN4CCCC4)c(O)c4ncccc34)n2)cc1` , pIC50 = 5.23

Log: MDA-MB-453, compound `Oc1c(CN2CCNCC2)cc(Cn2ncc(-c3ccc(Br)cc3)n2)c2cccnc12` , pIC50 = 5.70

Summary: `Oc1c(CN2CCCC2)cc(Cn2ncc(-c3ccccc3)n2)c2cccnc12` , MDA-MB-453, pIC50 = 5.54

Others:
Form: item `Cc1ccc(-c2cc(COCc3ccc(C(C)C)cc3)c3cccnc3c2O)cc1` ; test system MDA-MB-453; pIC50: 6.05

`CC(C)c1ccc(COCc2cc(-c3ccsc3)c(O)c3ncccc23)cc1` on MDA-MB-453 gives pIC50 = 6.22

Tested system MDA-MB-453; pIC50 recorded for `CCc1ccc(-c2cnn(Cc3cc(CN4CCCC4)c(O)c4ncccc34)n2)cc1` was 5.48

MDA-MB-453 data for `CC(C)c1ccc(COCc2cc(-c3ccccc3)c(O)c3ncccc23)cc1` ; its pIC50: 6.30

Here `Oc1c(CN2CCCCCC2)cc(Cn2ncc(-c3ccc(C(F)(F)F)cc3)n2)c2cccnc12` was tested on MDA-MB-453, and its pIC50 came to 5.20

Known value: MDA-MB-453 pIC50 of the compound `O=[N+]([O-])c1ccc(-c2cnn(Cc3cc(CN4CCCC4)c(O)c4ncccc34)n2)cc1` equals 5.39

###

Quick reference: pIC50 of the listed items.
Tested on: MDA-MB-435
assay.info: cells
conditions.used: Homo sapiens, MDA-MB-435, 72 h
In plain terms, pIC50 is the concentration in mol/L turned into minus its base-10 logarithm.

Look over these answered cases.
Looking up `Cc1ccc(-c2cnn(Cc3cc(CN4CCCC4)c(O)c4ncccc34)n2)cc1` , I found its pIC50 recorded as 5.70

Recorded pIC50 (compound `CCc1ccc(-c2cnn(Cc3cc(CN4CCCC4)c(O)c4ncccc34)n2)cc1` ): 5.49

Data point: `Oc1c(CN2CCCC2)cc(Cn2ncc(-c3ccc(Br)cc3)n2)c2cccnc12` ; pIC50 = 5.51

pIC50 recorded for this compound, `Cc1cccc(-c2cc(COCc3ccc(C(C)C)cc3)c3cccnc3c2O)c1` , is 5.74

Recorded result, `CC(C)c1ccc(COCc2cc(-c3ccnc4ccccc34)c(O)c3ncccc23)cc1` , pIC50: 5.92

The recorded pIC50 for entry `CC(C)c1ccc(COCc2cc(-c3ccccc3)c(O)c3ncccc23)cc1` equals 6.30

Continuing:
// pIC50 value for `CC(C)c1ccc(COCc2cc(-c3cncc4ccccc34)c(O)c3ncccc23)cc1` : 6.22

Record `CCN(CC)Cc1cc(Cn2ncc(-c3ccc(C(F)(F)F)cc3)n2)c2cccnc2c1O` , field pIC50: 5.42

Lab note: `COc1ccc(-c2cnn(Cc3cc(CN4CCCC4)c(O)c4ncccc34)n2)cc1` gave pIC50 of 5.41

Each recorded value in this set is attributed to ChEMBL document CHEMBL4828732.
